Target: T1, PUF4 RNA-binding domain (Saccharomyces cerevisiae, UniProt P25339 537-888)
T1 sequence: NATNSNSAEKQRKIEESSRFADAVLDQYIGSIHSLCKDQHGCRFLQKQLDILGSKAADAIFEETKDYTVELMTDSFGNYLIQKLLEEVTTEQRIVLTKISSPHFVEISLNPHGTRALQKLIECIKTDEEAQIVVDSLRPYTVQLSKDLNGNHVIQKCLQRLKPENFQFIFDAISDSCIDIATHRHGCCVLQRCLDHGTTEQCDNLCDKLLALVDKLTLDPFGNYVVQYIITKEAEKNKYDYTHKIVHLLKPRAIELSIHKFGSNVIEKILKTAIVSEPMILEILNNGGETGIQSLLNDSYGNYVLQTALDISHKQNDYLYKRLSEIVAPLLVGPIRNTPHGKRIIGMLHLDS
Assay: Mg; RNA-MaP; 20 mM Na-HEPES pH 7.4, 30 mM KOAc, 0.75 mM MgCl2, 0.1% Tween-20, 5% glycerol, 0.1 mg/mL BSA, 2 mM DTT; 25 C; 0.0125-409.6 nM protein
Conditions: tags: N-His6-TEV cleaved; C-SNAP kept, Cy3B-labelled; label: tethered on chip by stalled RNA polymerase
measured_endpoint: pKd
Convention used: pKd is expressed as -log10 of the molar concentration.

>>> test_result("UCUCUUUGUAUAUUUUCCUAUCUCUU (ssRNA) [Ie_S1_P4E.1_K4.1_C4.1_H4.1_A4.1_F4.1_[+8TTCCT]_T4.1]")
8.22

Request: // fetch pKd given entry Id_ii_S2_P5E.4_K5.3_C5.2_[C-2G]_[T-1C]_H5.3_A5.1_F5.1_T5.2_[T11C] (ssRNA) RNA: UUUGAUUAAUAUGAUAUCGUUCUUUCUGCACACUUAUUACAUUCUUUCUCGAUAUCAUAUUAAUCUUU
Result: 6.14

Request: // fetch pKd given entry Ie_S4_P5E.1_K5.1_C5.1_H5.1_A5.1_[+7TTT]_F5.1_T5.1 (ssRNA) RNA: UUUGACAACUGAUCGUUCUUUCUUGUAUUAUUUUUAUUCUUUCUCGAUCAGUUGUCUUU
Result: 7.90

Request: // fetch pKd given entry Ib_S4_P4E.1_K4.1_C4.1_H4.1_[T3C]_A4.1_[A6T]_F4.1_T4.1 (ssRNA) RNA: UUUGACAACUGAUCGUUCUUUCUUGCAUUUUAUUCUUUCUCGAUCAGUUGUCUUU
Result: 6.69

Request: // fetch pKd given entry UCUCUUUGUACUCAGUCUCUU (ssRNA) [Ic_S1_P4E.1_K4.1_C4.1_H4.1_A4.1_[T5C]_[A6T]_[T7C]_F4.1_[T8A]_[A9G]_T4.1]
Result: 6.13

Request: // fetch pKd given entry Id_ii_S2_P5E.3_K5.2_C5.2_[T-1G]_H5.2_A5.1_F5.1_T5.2_[T11A]_[A12C] (ssRNA) RNA: UUUGAUUAAUAUGAUAUCGUUCUUUCUCGUAUAUUAUUAACUUCUUUCUCGAUAUCAUAUUAAUCUUU
Result: 7.81

Request: // fetch pKd given entry Ie_S2_P5E.1_K5.1_C5.1_H5.1_A5.1_F5.1_[+8TC]_T5.1 (ssRNA) RNA: UUUGAUUAAUAUGAUAUCGUUCUUUCUUGUAUUAUUCUAUUCUUUCUCGAUAUCAUAUUAAUCUUU
Result: 7.99

Request: // fetch pKd given entry UCUCUUAUUGUAUAUACUUCUCUU (ssRNA) [Id_ii_S1_P3E.2_K3.1_C3.2_[C-2A]_H3.1_A3.1_F3.1_T3.2_[T9C]_[A10T]]
Result: 7.99

Origin of measurements: paper PMC9352680
